- system: T1, human CD71 extracellular domain (human, UniProt P02786 89-760)
- T1 construct: also called hCD71; CD71-ECD
- T1 sequence (P02786 89-760): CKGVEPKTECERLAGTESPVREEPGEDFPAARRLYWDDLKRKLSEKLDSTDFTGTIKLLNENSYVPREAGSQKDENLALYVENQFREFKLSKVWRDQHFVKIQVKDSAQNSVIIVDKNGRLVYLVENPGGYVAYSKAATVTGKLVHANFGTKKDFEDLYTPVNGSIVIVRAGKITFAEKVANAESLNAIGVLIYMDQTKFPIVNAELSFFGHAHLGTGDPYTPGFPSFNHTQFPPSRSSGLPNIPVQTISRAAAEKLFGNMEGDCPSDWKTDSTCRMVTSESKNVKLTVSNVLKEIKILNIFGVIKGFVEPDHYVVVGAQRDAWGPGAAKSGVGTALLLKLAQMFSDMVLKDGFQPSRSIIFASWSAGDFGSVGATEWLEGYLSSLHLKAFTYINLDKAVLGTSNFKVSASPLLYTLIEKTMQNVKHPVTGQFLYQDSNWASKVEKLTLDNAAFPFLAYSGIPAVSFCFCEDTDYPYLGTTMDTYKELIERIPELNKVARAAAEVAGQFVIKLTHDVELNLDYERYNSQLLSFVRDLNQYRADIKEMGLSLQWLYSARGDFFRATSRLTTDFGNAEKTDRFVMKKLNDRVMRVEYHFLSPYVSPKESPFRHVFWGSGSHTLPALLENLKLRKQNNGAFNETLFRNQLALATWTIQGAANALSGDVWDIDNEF
- method: primary ELISA; signal over HSA control
readout: hCD71:HSA

binder="CD71-binding FN3 domain SEQ ID NO 422 (designed binder) MLPAPKNLVVSRVTEDSARLSWTAPDAAFDSFFIGYLEPQPPGEAISLLVPGSERSYDLTGLKPGTEYNVTIQGVKGGFPSHPLDASFTT" readout=hCD71:HSA reported_measurement="171 ratio"
binder="CD71-binding FN3 domain SEQ ID NO 386 (designed binder) MLPAPKNLVVSRVTEDSARLSWTAPDAAFDSFYIAYAEPRPDGEAITLLVPGSERSYDLTGLKPGTEYSVLIHGVKGGLLSSPLSAIFTT" readout=hCD71:HSA reported_measurement="130 ratio"
